assay-procedure: Phase I open-label single-dose crossover oral bioavailability / PK test of bedoradrine sulfate in healthy volunteers
Format: in vivo, human
condition-details: both sexes, human, in vivo, po, 600 ug, AUC 0-24 h, median
Structures can show the parent of a compound that is named as a salt.
test-readout: AUC(0-t) (ng·h/mL)
State the answer as a number, implicitly in ng·h/mL.

GET /values?readout=AUC(0-t)&item= CN(C)C(=O)COc1ccc2c(c1)C[C@@H](NC[C@H](O)c1ccc(O)c(CCO)c1)CC2 [MN-221, bedoradrine sulfate]
1.85

---

assay-procedure: Phase I open-label single-dose crossover oral bioavailability / PK test of bedoradrine sulfate in healthy volunteers
Format: in vivo, human
condition-details: human one, in vivo, iv, 300 ug, AUC 0-24 h, individual subject
Counter-ions that a name gives are not always drawn.
test-readout: AUC(0-t) (ng·h/mL)
State the answer as a number, implicitly in ng·h/mL.

GET /values?readout=AUC(0-t)&item= CN(C)C(=O)COc1ccc2c(c1)C[C@@H](NC[C@H](O)c1ccc(O)c(CCO)c1)CC2 [MN-221, bedoradrine sulfate]
10.7

---

assay-procedure: Phase I open-label single-dose crossover oral bioavailability / PK test of bedoradrine sulfate in healthy volunteers
Assay type: in vivo, human
condition-details: female, human, in vivo, po, 600 ug, Cmax mean
Counter-ions that a name gives are not always drawn.
test-readout: Cmax (ng/mL)
State the answer as a number, implicitly in ng/mL.

GET /values?readout=Cmax&item= CN(C)C(=O)COc1ccc2c(c1)C[C@@H](NC[C@H](O)c1ccc(O)c(CCO)c1)CC2 [MN-221, bedoradrine sulfate]
0.221

---

assay-procedure: Phase I open-label single-dose crossover oral bioavailability / PK test of bedoradrine sulfate in healthy volunteers
Assay type: in vivo, human
condition-details: both sexes, human, in vivo, iv, 300 ug, AUC 0-24 h, median
Counter-ions that a name gives are not always drawn.
test-readout: AUC(0-t) (ng·h/mL)
State the answer as a number, implicitly in ng·h/mL.

GET /values?readout=AUC(0-t)&item= CN(C)C(=O)COc1ccc2c(c1)C[C@@H](NC[C@H](O)c1ccc(O)c(CCO)c1)CC2 [MN-221, bedoradrine sulfate]
14.1

---

assay-procedure: Phase I open-label single-dose crossover oral bioavailability / PK test of bedoradrine sulfate in healthy volunteers
Type: in vivo, human
condition-details: both sexes, human, in vivo, po, 600 ug, Tmax, mean
Counter-ions that a name gives are not always drawn.
test-readout: Tmax (h)
State the answer as a number, implicitly in h.

GET /values?readout=Tmax&item= CN(C)C(=O)COc1ccc2c(c1)C[C@@H](NC[C@H](O)c1ccc(O)c(CCO)c1)CC2 [MN-221, bedoradrine sulfate]
1.2

---

assay-procedure: Phase I open-label single-dose crossover oral bioavailability / PK test of bedoradrine sulfate in healthy volunteers
Type: in vivo, human
condition-details: male, human, in vivo, po, 600 ug, Cmax mean
Where a name gives a salt, the structure may show the parent alone.
test-readout: Cmax (ng/mL)
State the answer as a number, implicitly in ng/mL.

GET /values?readout=Cmax&item= CN(C)C(=O)COc1ccc2c(c1)C[C@@H](NC[C@H](O)c1ccc(O)c(CCO)c1)CC2 [MN-221, bedoradrine sulfate]
0.389

---

assay-procedure: Phase I open-label single-dose crossover oral bioavailability / PK test of bedoradrine sulfate in healthy volunteers
Type: in vivo, human
condition-details: both sexes, human, in vivo, iv, 300 ug, t½, range
Where a name gives a salt, the structure may show the parent alone.
test-readout: half-life

GET /values?readout=half-life&item= CN(C)C(=O)COc1ccc2c(c1)C[C@@H](NC[C@H](O)c1ccc(O)c(CCO)c1)CC2 [MN-221, bedoradrine sulfate]
444 to 876 min

---

assay-procedure: Phase I open-label single-dose crossover oral bioavailability / PK test of bedoradrine sulfate in healthy volunteers
Type: in vivo, human
condition-details: female, human, in vivo, po, 600 ug, AUC0-24 h range
Counter-ions that a name gives are not always drawn.
test-readout: AUC(0-t)

GET /values?readout=AUC(0-t)&item= CN(C)C(=O)COc1ccc2c(c1)C[C@@H](NC[C@H](O)c1ccc(O)c(CCO)c1)CC2 [MN-221, bedoradrine sulfate]
1.05 to 1.79 ng·h/mL

---

assay-procedure: Phase I open-label single-dose crossover oral bioavailability / PK test of bedoradrine sulfate in healthy volunteers
Type: in vivo, human
condition-details: both sexes, human, in vivo, po, 600 ug, t½, median
Where a name gives a salt, the structure may show the parent alone.
test-readout: half-life (h)
State the answer as a number, implicitly in h.

GET /values?readout=half-life&item= CN(C)C(=O)COc1ccc2c(c1)C[C@@H](NC[C@H](O)c1ccc(O)c(CCO)c1)CC2 [MN-221, bedoradrine sulfate]
15.2

---

assay-procedure: Phase I open-label single-dose crossover oral bioavailability / PK test of bedoradrine sulfate in healthy volunteers
Assay type: in vivo, human
condition-details: female, human, in vivo, po, 600 ug, Cmax range
Where a name gives a salt, the structure may show the parent alone.
test-readout: Cmax

GET /values?readout=Cmax&item= CN(C)C(=O)COc1ccc2c(c1)C[C@@H](NC[C@H](O)c1ccc(O)c(CCO)c1)CC2 [MN-221, bedoradrine sulfate]
0.163 to 0.299 ng/mL

---

assay-procedure: Phase I open-label single-dose crossover oral bioavailability / PK test of bedoradrine sulfate in healthy volunteers
Type: in vivo, human
condition-details: both sexes, human, in vivo, po, 600 ug, t½, mean
Counter-ions that a name gives are not always drawn.
test-readout: half-life (h)
State the answer as a number, implicitly in h.

GET /values?readout=half-life&item= CN(C)C(=O)COc1ccc2c(c1)C[C@@H](NC[C@H](O)c1ccc(O)c(CCO)c1)CC2 [MN-221, bedoradrine sulfate]
16
